Target: Human recombinant MMP-2 (Homo sapiens, UniProt P08253)
Construct: made in house; host or cells: MMP-2-transfected p2AHT2 cells
Sequence (P08253 110-660): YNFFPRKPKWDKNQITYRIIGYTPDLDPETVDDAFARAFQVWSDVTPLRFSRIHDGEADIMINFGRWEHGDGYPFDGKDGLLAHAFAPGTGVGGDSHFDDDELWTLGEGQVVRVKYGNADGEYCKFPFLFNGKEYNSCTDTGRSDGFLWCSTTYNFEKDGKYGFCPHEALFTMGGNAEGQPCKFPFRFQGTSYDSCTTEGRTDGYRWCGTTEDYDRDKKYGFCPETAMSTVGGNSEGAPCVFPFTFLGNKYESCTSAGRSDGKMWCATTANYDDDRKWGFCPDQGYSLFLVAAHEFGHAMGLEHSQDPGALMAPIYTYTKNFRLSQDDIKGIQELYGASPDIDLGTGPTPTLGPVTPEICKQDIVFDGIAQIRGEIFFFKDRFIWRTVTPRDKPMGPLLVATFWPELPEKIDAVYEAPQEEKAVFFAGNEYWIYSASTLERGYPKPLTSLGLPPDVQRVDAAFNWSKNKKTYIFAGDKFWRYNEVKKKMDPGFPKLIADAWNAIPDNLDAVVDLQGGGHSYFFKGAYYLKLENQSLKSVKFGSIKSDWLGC
Assay: In vitro MMP inhibition, Ki determination (fluorogenic substrate II)
Type: biochemical
Conditions: value in parentheses
# note: exactly 500 nM is not below, so it is false; use true for Ki strictly under it

Some solved entries appear below for comparison.
>  <molecule>
O=C(NO)C1(S(=O)(=O)c2ccc(OCCCc3cncc(-c4ccccc4)c3)cc2)CCOCC1 [Example 524]

>  <label_value>
true

$$$$
>  <molecule>
O=C(NCCSc1ccc(S(=O)(=O)C2(C(=O)NO)CCN(C3CC3)CC2)cc1)c1nc2ccccc2s1 [Example 541]

>  <label_value>
true

$$$$
>  <molecule>
O=C(NO)C1(S(=O)(=O)c2ccc(OCCc3ccc(-c4cccc(O)c4)cc3)cc2)CCOCC1 [Example 532]

>  <label_value>
false

$$$$
>  <molecule>
COCCN1CCC(C(=O)NO)(S(=O)(=O)c2ccc(OCCc3cccc(-c4ccccc4F)c3)cc2)CC1 [Example 540]

>  <label_value>
true

$$$$
>  <molecule>
Cc1ccc(NC(=O)CCCOc2ccc(S(=O)(=O)C3(C(=O)NO)CCOCC3)cc2)cc1I [Example 527]

>  <label_value>
true

$$$$

Problem: Please state whether Ki is below 500 nM for COCCN1CCC(C(=O)NO)(S(=O)(=O)c2ccc(OCCCc3cccc(-c4ccccc4F)c3)cc2)CC1 [Example 512]
Result: false

Problem: Please state whether Ki is below 500 nM for O=C(NO)C1(S(=O)(=O)c2ccc(OCCCc3cccc(-c4ccc5c(c4)OCO5)c3)cc2)CCOCC1 [Example 628]
Result: false

Problem: Please state whether Ki is below 500 nM for COCCN1CCC(C(=O)NO)(S(=O)(=O)c2ccc(OCCc3cccc(-c4cccnc4)c3)cc2)CC1 [Example 539]
Result: true

###

Biological target: Human recombinant MMP-14 (Homo sapiens, UniProt P50281)
Construct: The catalytic domain enzyme was expressed in E. coli inclusion bodies, solubilized in urea; made in house
Assay: In vitro MMP inhibition, IC50 determination (fluorogenic substrate I)
Format: biochemical
Conditions: value outside parentheses (Ki in parenthesis)
measured_metric: IC50 (µM)
Numbers only, in µM.

Here's what some known entries look like.
>  <compound>
O=C(NO)C1(S(=O)(=O)c2ccc(OCCSc3nc4ccccc4o3)cc2)CCOCC1 [Example 410]

>  <IC50 / µM>
0.515

$$$$
>  <compound>
COc1cc(COCCCOc2ccc(S(=O)(=O)C3(C(=O)NO)CCOCC3)cc2)cc(OC)c1 [Example 453]

>  <IC50 / µM>
5

$$$$

Now for another entry.
Problem: What reported IC50 corresponds to Cc1cc(C(=O)NCCCOc2ccc(S(=O)(=O)C3(C(=O)NO)CCOCC3)cc2)no1 [Example 386] on Human recombinant MMP-14 (Homo sapiens, UniProt P50281)?
Result: 9.72

###

Target: Human recombinant MMP-13 (Homo sapiens)
Construct: made in house; host or cells: baculovirus / insect cells
Assay: In vitro MMP inhibition, Ki determination (fluorogenic substrate II)
Assay type: biochemical
Conditions: value in parenthesis
pKi: −log10 of the molar value.
Parameter threshold = 9. Response is fulfilled when pKi meets or exceeds it, else not fulfilled.

>  <compound>
CC(C)c1ccc(-c2cccc(CCOc3ccc(S(=O)(=O)C4(C(=O)NO)CCOCC4)cc3)c2)cc1

>  <label_value>
not fulfilled

$$$$
>  <compound>
O=C(NO)C1(S(=O)(=O)c2ccc(OCCc3cccc(-c4ccncc4)c3)cc2)CCOCC1

>  <label_value>
fulfilled

$$$$

Problem: Could you please find out whether O=C(CCCOc1ccc(S(=O)(=O)C2(C(=O)NO)CCOCC2)cc1)Nc1cccc(OC(F)(F)F)c1 has pKi that meets 9 or exceeds it?
Result: fulfilled

Problem: Could you please find out whether O=C(NO)C1(S(=O)(=O)c2ccc(OCCCc3cccc(-c4ccc(Cl)c(Cl)c4)c3)cc2)CCOCC1 has pKi that meets 9 or exceeds it?
Result: not fulfilled

Problem: Could you please find out whether O=C(NO)C1(S(=O)(=O)c2ccc(OCCCc3nc(-c4ccc(OC(F)(F)F)cc4)no3)cc2)CCN(Cc2ccccc2)CC1 has pKi that meets 9 or exceeds it?
Result: not fulfilled

Problem: Could you please find out whether NC(=O)c1cccc(-c2noc(CCCOc3ccc(S(=O)(=O)C4(C(=O)NO)CCN(C5CC5)CC4)cc3)n2)c1 has pKi that meets 9 or exceeds it?
Result: fulfilled

Problem: Could you please find out whether CCCCc1ccc(-c2noc(CCCOc3ccc(S(=O)(=O)C4(C(=O)NO)CCOCC4)cc3)n2)c(C)c1 has pKi that meets 9 or exceeds it?
Result: not fulfilled

Problem: Could you please find out whether O=C(CCCOc1ccc(S(=O)(=O)C2(C(=O)NO)CCOCC2)cc1)Nc1ccc(OC(F)(F)F)cc1 [Example 228] has pKi that meets 9 or exceeds it?
Result: fulfilled

Problem: Could you please find out whether CC(C)c1cccc(NC(=O)CCCOc2ccc(S(=O)(=O)C3(C(=O)NO)CCOCC3)cc2)c1 has pKi that meets 9 or exceeds it?
Result: fulfilled

###

Biological target: Human recombinant MMP-2 (Homo sapiens, UniProt P08253)
Construct: made in house; host or cells: MMP-2-transfected p2AHT2 cells
Experiment: In vitro MMP inhibition, IC50 determination (fluorogenic substrate I)
Assay type: biochemical
Settings: value outside parentheses (Ki in parenthesis)
pIC50: −log10 of the molar value.
Parameter threshold = 8. Response is Condition met when pIC50 meets or exceeds it, else Condition not met.

Some solved entries appear below for comparison.
>  <molecule>
CC(C)(C)c1ccc(C(=O)NCCCOc2ccc(S(=O)(=O)C3(C(=O)NO)CCOCC3)cc2)cc1

>  <target_or_test_system>
Human recombinant MMP-2 (Homo sapiens, UniProt P08253)

>  <label_value>
Condition not met

$$$$
>  <molecule>
O=C(CCCOc1ccc(S(=O)(=O)C2(C(=O)NO)CCOCC2)cc1)c1cccc(-c2ccccc2)c1

>  <target_or_test_system>
Human recombinant MMP-2 (Homo sapiens, UniProt P08253)

>  <label_value>
Condition not met

$$$$
>  <molecule>
N#Cc1ccc(N2CCN(CCCOc3ccc(S(=O)(=O)C4(C(=O)NO)CCOCC4)cc3)C2=O)cc1

>  <target_or_test_system>
Human recombinant MMP-2 (Homo sapiens, UniProt P08253)

>  <label_value>
Condition not met

$$$$

Problem: Could you please find out whether COc1ccc(C(=O)C(C)CCOc2ccc(S(=O)(=O)C3(C(=O)NO)CCOCC3)cc2)cc1 (stereo not shown) has pIC50 that meets 8 or exceeds it?
Result: Condition not met

Problem: Could you please find out whether COc1cc2c(cc1OC)C(C)N(C(=O)OCCCCOc1ccc(S(=O)(=O)C3(C(=O)NO)CCOCC3)cc1)CC2 (stereo not shown) has pIC50 that meets 8 or exceeds it?
Result: Condition met

Problem: Could you please find out whether COc1ccc2cc(C(=O)NCCCOc3ccc(S(=O)(=O)C4(C(=O)NO)CCOCC4)cc3)ccc2c1 has pIC50 that meets 8 or exceeds it?
Result: Condition not met

###

Molecular target: Human recombinant MMP-13 (Homo sapiens, UniProt P45452)
Construct: made in house; host or cells: baculovirus / insect cells
Assay: In vitro MMP inhibition, IC50 determination (fluorogenic substrate I)
Assay type: biochemical
Conditions: value outside parentheses
For each entry below, report its IC50 value.

>  <molecule>
COc1ccc(C(=O)CCCOc2ccc(S(=O)(=O)C3(C(=O)NO)CCOCC3)cc2)cc1 [Example 491]

>  <target_or_test_system>
Human recombinant MMP-13 (Homo sapiens, UniProt P45452)

>  <IC50>
0.8 nM

$$$$
>  <molecule>
O=C(NO)C1(S(=O)(=O)c2ccc(OCCOCc3ccccn3)cc2)CCOCC1 [Example 515]

>  <target_or_test_system>
Human recombinant MMP-13 (Homo sapiens, UniProt P45452)

>  <IC50>
24.2 nM

$$$$
>  <molecule>
CN(C(=O)CCCOc1ccc(S(=O)(=O)C2(C(=O)NO)CCOCC2)cc1)c1ccccc1 [Example 654]

>  <target_or_test_system>
Human recombinant MMP-13 (Homo sapiens, UniProt P45452)

>  <IC50>
0.55 nM

$$$$

Now for another entry.
Problem: I'd like to know its IC50. The molecule in question is O=C(NO)C1(S(=O)(=O)c2ccc(OCCCc3nc(-c4ccccc4)no3)cc2)CCOCC1 [Example 584]
Result: 3.6 nM

###

Biological target: Human recombinant MMP-13 (Homo sapiens, UniProt P45452)
Construct: made in house; host or cells: baculovirus / insect cells
Test: In vitro MMP inhibition, IC50 determination (fluorogenic substrate I)
Assay type: biochemical
Conditions: value outside parenthesis
# note: exactly 2 nM is not below, so it is not fulfilled; use fulfilled for IC50 strictly under it

Some solved entries appear below for comparison.
>  <molecule>
O=C(NO)C1(S(=O)(=O)c2ccc(OCCCc3cccc(-c4ccccc4F)c3)cc2)CCOCC1

>  <label_value>
not fulfilled

$$$$
>  <molecule>
O=C(NO)C1(S(=O)(=O)c2ccc(OCCCc3nc(-c4cccc(OC(F)(F)F)c4)no3)cc2)CCOCC1

>  <label_value>
not fulfilled

$$$$
>  <molecule>
O=C(NO)C1(S(=O)(=O)c2ccc(OCCCc3cccc(-c4ccccn4)c3)cc2)CCOCC1 [Example 148]

>  <label_value>
not fulfilled

$$$$

# input for lookup
Problem: Please state whether IC50 is below 2 nM for COCCN1CCC(C(=O)NO)(S(=O)(=O)c2ccc(OCCCn3nnc(-c4cccs4)n3)cc2)CC1
Result: fulfilled

Values from patent US20040024024A1
